# Tested on: P388 leukemia ip, CD2F1 mice, survival T/C
# run-description: NCI In Vivo Anticancer Drug Screen. Data for tumor model P388 Leukemia (intraperitoneal) in CD2F1 (CDF1) mice
# test-context: endpoint: median survival time; dose: 100.0 mg/kg/injection; schedule: Q04DX002 (ip); vehicle: saline; higher = longer survival
Toxic doses and inconclusive results are not listed.
parameter-measured: T/C

Please review the following examples before continuing.
The recorded T/C with P388 leukemia ip, CD2F1 mice, survival T/C for `c1cc2cc(c1)CSCCCSCc1cccc(c1)CSCCCSC2` was 105 % of control

The recorded T/C with P388 leukemia ip, CD2F1 mice, survival T/C for `Cc1ccccc1C1(Br)C(=O)c2ccccc2C1=O` was 101 % of control

For Cc1ccc(S(=O)(=O)CC2CCc3ccccc3C2=O)cc1 (stereo unspecified) on P388 leukemia ip, CD2F1 mice, survival T/C, measured T/C was 107 % of control

T/C of `CC1(C)CSC(=S)SC1` , assay on P388 leukemia ip, CD2F1 mice, survival T/C, is 103 % of control

Observed T/C on P388 leukemia ip, CD2F1 mice, survival T/C, entry `CCOC1(OCC)N(S(=O)(=O)c2ccc(C)cc2)C(=O)C(=O)N1S(=O)(=O)c1ccc(C)cc1` , equals 100 % of control

Lab note: next molecule to report on.
Record for `NNc1ccc2nnc(Cl)n2n1` under target or system P388 leukemia ip, CD2F1 mice, survival T/C: T/C reported as 101 % of control
